method_notes: clinical
Assay type: in vivo, human
condition_summary: human, in vivo
observable: concentration at 0 w (ng/mL)
# unit: ng/mL | format: bare number

Quickly give me recorded concentration at 0 w for "CC(C)=CCC/C(C)=C/C=C/C(C)=C/C=C/C(C)=C/C=C/C=C(C)/C=C/C=C(C)/C=C/C=C(\C)CCC=C(C)C"
179

----------
method_notes: Pharmacokinetic study on volunteers: unmodified trans-resveratrol in blood
Type: in vivo
condition_summary: human, serum, po, 100 mg, 100 mg trans-Resveratol oral, individual volunteers ID 1, 2, read-out: AUC for 24 hours
observable: AUC (ng·h/mL)
Give just the numeric value; ng·h/mL need not be written.

For Oc1ccc(/C=C/c2cc(O)cc(O)c2)cc1 [Resveratrol, 3,5,4′-trihydroxy-trans-stilbene] , write its AUC.
432

----------
method_notes: clinical
Type: in vivo, human
condition_summary: human, in vivo
observable: concentration at 4 w (µg/mL)
Give your result in µg/mL as a bare value.

Provide only the value of recorded concentration at 4 w for "CC(C)=CCC/C(C)=C/C=C/C(C)=C/C=C/C(C)=C/C=C/C=C(C)/C=C/C=C(C)/C=C/C=C(\C)CCC=C(C)C"
0.295
